# solubility (mole fraction) per entry
settings: in n-propyl acetate, 298.15 K
Output: the number by itself.

Lab book: solubility (mole fraction) of O=c1c(O)c(-c2ccc(O)cc2)oc2cc(O)cc(O)c12 noted as 0.00275

The reported solubility (mole fraction) of the molecule Oc1ccc(/C=C/c2cc(O)cc(O)c2)cc1 was 0.00596

Reported solubility (mole fraction) of O=c1c(O)c(-c2ccc(O)c(O)c2)oc2cc(O)cc(O)c12 : 0.0019

For OC[C@H]1O[C@@H](Oc2cc(O)cc(/C=C/c3ccc(O)cc3)c2)[C@H](O)[C@@H](O)[C@@H]1O the molecule record lists solubility (mole fraction) as 3.37e-05
